test: Cell Proliferation Assay against the HBL1 Cell Line (AID 651646); details: HBL1 DLBCL cells; at 46.1 µM (top of the series);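 note: cells exposed to compound for 48 h before reading; 100% = DMSO and 0% = 9.2 µM bortezomib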
# Condition met = viability, percent of control below 30% (exclusive); Condition not met = viability, percent of control at/above 30%

Solved entries:
INSERT INTO measurements (structurenotation, classassignment) VALUES
  ('CC(C)C[C@@H](C(=O)N[C@H](C(=O)OC1CCCC1)c1ccccc1)[C@H](O)C(=O)NO', 'Condition met'),
  ('Cc1csc(-c2nnc(Nc3ccc(Oc4ncccc4-c4ccnc(N)n4)cc3)c3ccccc23)c1', 'Condition not met'),
  ('O=C(O)c1ccc(O)c2ncc(N3CCOCC3)cc12', 'Condition not met'),
  ('Nc1ccc(-c2ccc3ncc4ccc(=O)n(-c5cccc(C(F)(F)F)c5)c4c3c2)cn1', 'Condition met'),
  ('Cc1cccc(Nc2nc(N[C@@H]3CCCC[C@H]3N)ncc2C(N)=O)c1', 'Condition met'),
  ('Cc1c(C(=O)Nc2ccc(N3C[C@@H](C)O[C@@H](C)C3)nc2)cccc1-c1ccc(OC(F)(F)F)cc1', 'Condition not met'),
  ('CCCCCCCCCCCCCC(=O)N[C@H](CO)[C@H](O)c1ccc([N+](=O)[O-])cc1', 'Condition met');

Here's the next entry for you.
-- ask Hi there! Is viability, percent of control for CC(O)=C(C#N)C(=O)Nc1ccc(C(F)(F)F)cc1 below 30%, do you know?
-- reply Condition not met

----------
assay: qHTS drug screen for cell cycle checkpoint inhibitors in PARPi-resistant BRCA-mutant ovarian cancer cell lines. (AID 1963452); settings: PEO1/OlaR viability, CellTiter-Glo luminescence, 96 h; stronger effect = lower value
The compounds listed here are annotated with their Z-AUC.
Enter a number only.

INSERT INTO results (compound, experimentalendpoint, quantitativereadout) VALUES
  ('CC1=C(C(=O)Nc2cc3cn[nH]c3cc2F)C(c2ccc(C(F)(F)F)cc2)CC(=O)N1 (stereo unspecified)', 'Z-AUC', -0.362);

-- ask Entry CN(C)CCCNC(=O)c1ccc(-c2cc(O)c3ncccc3c2)cc1 has what Z-AUC?
-- reply -0.763

-- ask Name the recorded Z-AUC for CCCCC(C)(C)[C@H](O)C=C[C@H]1[C@H](O)CC(=O)[C@H]1CC=CCCCC(=O)O .
-- reply 0.66

-- ask Using the record for O=S(=O)(O)c1ccc2cc(N=Nc3cc(S(=O)(=O)O)c4cccnc4c3O)ccc2c1 , report its Z-AUC.
-- reply 0.327

-- ask Look up Z-AUC: COc1ccc(CCC(=O)Nc2nc3ccc(Cl)cc3s2)cc1OC
-- reply -1.42

-- ask I have this compound here, CO[C@@H]1C(N(C)C(=O)c2ccccc2)C[C@H]2O[C@]1(C)n1c3ccccc3c3c4c(c5c6ccccc6n2c5c31)C(=O)NC4=O (stereo partly specified) , and I need its recorded Z-AUC.
-- reply 0.0475

-- ask Given the entry COc1ccc(CCN(C)CCCOc2ccc(S(=O)(=O)c3[nH]c4ccccc4c3C(C)C)cc2)cc1OC , report its measured Z-AUC.
-- reply -0.498

-- ask Return reported Z-AUC; argument: Cc1nn(Cc2ccccc2Cl)c(C)c1CN(C)CC(O)COc1ccc(Cl)cc1 (stereo unspecified)
-- reply 0.675

-- ask Please report the recorded Z-AUC for O=C(NC[C@H](O)CO)c1ccncc1Nc1ccc(I)cc1F .
-- reply -0.995

-- ask I'd like to know its Z-AUC. The compound in question is CC(C)C[C@@H](N)[C@H](O)C(=O)N[C@H](C(=O)N[C@H](C(=O)N[C@@H](CC(=O)O)C(=O)O)C(C)C)C(C)C
-- reply -0.687

-- ask So what's the measured Z-AUC for this one? O[C@@H](COc1cccc2ncccc12)CN1CCN(C2c3ccccc3[C@@H]3[C@H](c4ccccc42)C3(F)F)CC1 (stereo partly specified)
-- reply -1.07

-- ask Bench note: what Z-AUC did Cn1c(=O)c(-c2c(Cl)cccc2Cl)cc2cnc(Nc3cccc(C(=O)O)c3)nc21 show?
-- reply 0.595

-- ask Data request, read-out Z-AUC, for COc1ccc2nc3cc(Cl)ccc3c(Nc3cc(CN4CCCC4)c(O)c(CN4CCCC4)c3)c2n1
-- reply 1.63

-- ask # query: Z-AUC of entry O=C(O)CCC=CCC[C@@H]1[C@H](N2CCCCC2)[C@@H](O)C[C@@H]1OCc1ccc(-c2ccccc2)cc1
-- reply 0.918

-- ask Could you share which Z-AUC value was measured for CCCCn1c(=O)n(Cc2ccccc2F)c(=O)c2[nH]c(Cc3ccc(NC(C)=O)cc3)nc21 ?
-- reply -0.247

-- ask Value lookup for Z-AUC; key = Cc1cnc(CNC(=O)c2c(=O)c3ccc(N4CCCN(C)CC4)nc3n3c2sc2ccccc23)cn1
-- reply -0.335

----------
assay: Quantitative High-Throughput drug screen in 47 multiple myeloma cell lines against the NCATS MIPE library collection: MMM1_PLB cell viability assay (AID 1918976); settings: MMM1 myeloma cells viability, CellTiter-Glo, 48 h; series mostly up to 45.8 µM; note: potency is the fitted concentration of half-maximal effect; nearly all actives have a fitted effect of over 35% in size
Results filed as inconclusive are left out. Calls of active or inactive are those of the source. Calls come from the whole dose curve; as a rule, active = well fitted cell-killing curve with a large enough effect; inconclusive = small, poorly fitted or top-dose-only effect, or effect the other way; inactive = no such curve, though single readings can be large or run the other way.
Reported Potency is given for each of the following compounds.

In the examples that follow, each entry is paired with its recorded Potency.
INSERT INTO measurements (structurenotation, result) VALUES
  ('Cc1[nH]c(C=C2C(=O)Nc3ccc(S(=O)(=O)N(C)c4cccc(Cl)c4)cc32)c(C)c1C(=O)N1CCN(C)CC1', '18.7 µM (active)'),
  ('O=C1NC(=O)C(=Cc2ccc(-c3ccc(F)cc3O)o2)S1', '2.96 µM (active)'),
  ('CO[C@H]1/C=C\O[C@@]2(C)Oc3c(C)c(O)c4c(O)c(c(C=NN5CCN(C6CCCC6)CC5)c(O)c4c3C2=O)NC(=O)C(C)=CC=C[C@H](C)[C@H](O)[C@@H](C)[C@@H](O)[C@@H](C)[C@H](OC(C)=O)[C@H]1C', '5.26 µM (active)'),
  ('CC(=O)NCCC(=O)N[C@@H](CCC(N)=O)C(=O)N[C@@H](CO)C(=O)N[C@@H](CCC(N)=O)C(=O)N[C@@H](CCC(N)=O)C(=O)N[C@H](C(=O)N[C@@H](Cc1ccccc1)C(=O)N[C@]1(C)CCCCCCC=CCCC[C@@](C)(C(=O)N[C@@H](CCC(N)=O)C(=O)N[C@@H](CC(N)=O)C(N)=O)NC(=O)[C@H](CC(C)C)NC(=O)[C@H](CC(C)C)NC(=O)[C@@H](CCCNC(=N)N)NC(=O)[C@H](Cc2c[nH]c3ccccc23)NC(=O)[C@H](CC(C)C)NC(=O)[C@H](CC(N)=O)NC1=O)[C@H](C)O', '5.26 µM (active)'),
  ('COc1ccc(-c2cc3nccn3c(Nc3ncccc3C(N)=O)n2)cc1OC', '10.5 µM (active)');

-- ask Which measured Potency value corresponds to CCC(=C(c1ccc(O)cc1)c1ccc(OCCNC)cc1)c1ccccc1 ?
-- reply 20.9 µM (active)

----------
System: NIH3T3
Assay: Cytotoxic Profiling of Annotated Libraries Using Quantitative High-Throughput Screening (AID 1296008); note: % is set by controls: 0 for no effect and ±100 for the full control effect; nearly all actives have a fitted effect of over 60% in size
Details: Five cell lines viability, CellTiter-Glo ATP luminescence, 48-72 h; stronger effect = lower value
Experimental: Cell-based phenotypic screening is a commonly used approach to discover biological pathways, novel drug targets, chemical probes and high-quality hit-to-lead molecules. […] A pintool (Kalypsys) was used to transfer 23 nL of compound solution to the 1536-well assay plates. […] Plates were left at room temperature for 10 min before imaging the ATP-coupled luminescence using a ViewLux microplate imager (PerkinElmer, Waltham, MA).
Results filed as inconclusive are left out.
experimentalEndpoint: max response (%)
Kindly answer with a numeric value in %, unit omitted.

Some solved entries appear below for comparison.
INSERT INTO measurements (compound, experimentalendpoint, quantitativereadout) VALUES
  ('CC(C)c1onc(-c2c(Cl)cccc2Cl)c1COc1ccc(C=Cc2cccc(C(=O)O)c2)c(Cl)c1', 'max response', 4.7),
  ('COC(=O)N1CCN(Cc2cccc(NC(=O)Nc3ccc(C)nc3)c2F)CC1', 'max response', -1.49),
  ('CNC(=O)[C@H](CC1=CN=C2C=CCC=C12)NC(=O)[C@@H](CC(=O)NO)CC(C)C', 'max response', -0.494);

-- ask Requested field: max response. Item: CNC(=O)c1cc(Oc2ccc(NC(=O)Nc3ccc(Cl)c(C(F)(F)F)c3)c(F)c2)ccn1
-- reply -27

-- ask Can you look up the measured max response of CN(C)CCOc1cc(-c2cn[nH]c2)ccc1NC(=O)C1COc2ccccc2O1 (centres undefined) for me?
-- reply -6.62

-- ask Which max response value belongs to O=C(Nc1cccc2c(=O)cc(-c3nn[nH]n3)oc12)c1ccc(OCCCCc2ccccc2)cc1 ?
-- reply -4.19

-- ask Returns the measured max response for the input compound. Input: C[C@H](CCC(=O)O)[C@H]1CC[C@H]2[C@H]3[C@@H](CC[C@]12C)[C@@]1(C)CC[C@@H](O)C[C@H]1C[C@@H]3O
-- reply -1.17

-- ask Fill in: max response of Cc1ccccc1-n1c(Cn2nc(-c3cccc(O)c3)c3c(N)ncnc32)nc2cccc(C)c2c1=O is ___
-- reply -4.97

-- ask Which max response is reported for this compound? CC1(C)[C@H]2CC[C@]3(C)[C@@H](C(=O)C=C4[C@@H]5C[C@@](C)(C(=O)O)CC[C@]5(C)CC[C@]43C)[C@@]2(C)CC[C@@H]1O
-- reply -8.32
